system: Escherichia coli TOP10; experiment: shrunken log2 fold change of peptide-encoding DNA abundance (4.5 h post-induction vs induction); higher = less antimicrobial activity (less host growth inhibition); details: time post-induction: 4.5 h; library: site-saturation at positions 5, 18, 19, 20
The following sequences are shown together with reported shrunken log2 fold change values.

chain | shrunken log2 fold change
RRIRGRPPRLPRPRPRPVQIPRP | 0.335
RRIRKRPPRLPRPRPRPILQPRP | 0.0319
RRIRMRPPRLPRPRPRPMTMPRP | 0.178
RRIRWRPPRLPRPRPRPWMLPRP | -0.0694
RRIRGRPPRLPRPRPRPGPGPRP | 1.65
RRIRSRPPRLPRPRPRPKPLPRP | -0.107
RRIRSRPPRLPRPRPRPPITPRP | -0.177
RRIRERPPRLPRPRPRPTTLPRP | -0.325
RRIRFRPPRLPRPRPRPNGGPRP | 0.000932
RRIRDRPPRLPRPRPRPKFKPRP | -0.0689
RRIRTRPPRLPRPRPRPRGQPRP | 0.411
RRIRTRPPRLPRPRPRPETVPRP | 0.0349
RRIRMRPPRLPRPRPRPYILPRP | -1.08
RRIRNRPPRLPRPRPRPVRCPRP | 0.0872
RRIRERPPRLPRPRPRPHPQPRP | -0.103

* * *

Let's look at some sequences and their measured shrunken log2 fold change.
system: Escherichia coli TOP10; assay: shrunken log2 fold change of peptide-encoding DNA abundance (4.5 h post-induction vs induction); higher = less antimicrobial activity (less host growth inhibition); conditions: time post-induction: 4.5 h; library: site-saturation at positions 5, 18, 19, 20

chain | shrunken log2 fold change
RRIRGRPPRLPRPRPRPARGPRP | 0.915
RRIRYRPPRLPRPRPRPTYEPRP | 4.06
RRIRLRPPRLPRPRPRPCFHPRP | -0.49
RRIRCRPPRLPRPRPRPGFSPRP | -0.257
RRIRCRPPRLPRPRPRPNALPRP | 0.0653
RRIRGRPPRLPRPRPRPNHPPRP | 0.0349
RRIRYRPPRLPRPRPRPMRMPRP | 0.126
RRIRTRPPRLPRPRPRPMGVPRP | -0.174

* * *

system: Escherichia coli TOP10; assay: shrunken log2 fold change of peptide-encoding DNA abundance (4.5 h post-induction vs induction); higher = less antimicrobial activity (less host growth inhibition); settings: time post-induction: 4.5 h; library: site-saturation at positions 5, 18, 19, 20
Tick condition met if shrunken log2 fold change is 0.01 or greater. Tick condition not met if shrunken log2 fold change is less than 0.01.

chain | studyTarget | assignedLabel
RRIRLRPPRLPRPRPRPLRHPRP | Escherichia coli TOP10 | condition met
RRIRTRPPRLPRPRPRPKYCPRP | Escherichia coli TOP10 | condition not met
RRIRGRPPRLPRPRPRPRNFPRP | Escherichia coli TOP10 | condition met
RRIRARPPRLPRPRPRPTNPPRP | Escherichia coli TOP10 | condition met
RRIRLRPPRLPRPRPRPSVHPRP | Escherichia coli TOP10 | condition not met
RRIRDRPPRLPRPRPRPTLGPRP | Escherichia coli TOP10 | condition met
RRIRNRPPRLPRPRPRPVFSPRP | Escherichia coli TOP10 | condition not met
RRIRSRPPRLPRPRPRPPWYPRP | Escherichia coli TOP10 | condition not met
RRIRHRPPRLPRPRPRPNVTPRP | Escherichia coli TOP10 | condition not met
RRIRCRPPRLPRPRPRPLITPRP | Escherichia coli TOP10 | condition not met
RRIRIRPPRLPRPRPRPWWFPRP | Escherichia coli TOP10 | condition not met
RRIRCRPPRLPRPRPRPLMKPRP | Escherichia coli TOP10 | condition not met
RRIRWRPPRLPRPRPRPRPKPRP | Escherichia coli TOP10 | condition met
RRIRQRPPRLPRPRPRPSMYPRP | Escherichia coli TOP10 | condition not met

* * *

system: Escherichia coli TOP10; experiment: shrunken log2 fold change of peptide-encoding DNA abundance (4.5 h post-induction vs induction); higher = less antimicrobial activity (less host growth inhibition); details: time post-induction: 4.5 h; library: site-saturation at positions 5, 18, 19, 20
Lab note: compare shrunken log2 fold change against 0.06. Equal or greater, write Criterion met. Smaller, write Criterion not met.

chain | assignedLabel
RRIRPRPPRLPRPRPRPECIPRP | Criterion not met
RRIRDRPPRLPRPRPRPQHVPRP | Criterion not met
RRIRSRPPRLPRPRPRPKGPPRP | Criterion not met
RRIRNRPPRLPRPRPRPKKEPRP | Criterion not met
RRIRMRPPRLPRPRPRPSIKPRP | Criterion not met
RRIRNRPPRLPRPRPRPMYIPRP | Criterion not met
RRIRPRPPRLPRPRPRPIHLPRP | Criterion not met
RRIRNRPPRLPRPRPRPSWKPRP | Criterion met
RRIRIRPPRLPRPRPRPSLEPRP | Criterion not met
RRIRTRPPRLPRPRPRPDREPRP | Criterion not met
RRIRSRPPRLPRPRPRPAGFPRP | Criterion met
RRIRTRPPRLPRPRPRPQFQPRP | Criterion met
RRIRARPPRLPRPRPRPNGDPRP | Criterion met
RRIRCRPPRLPRPRPRPQGLPRP | Criterion met
RRIRRRPPRLPRPRPRPMIRPRP | Criterion met

* * *

system: Escherichia coli TOP10; experiment: shrunken log2 fold change of peptide-encoding DNA abundance (4.5 h post-induction vs induction); higher = less antimicrobial activity (less host growth inhibition); details: time post-induction: 4.5 h; library: site-saturation at positions 5, 18, 19, 20
Assign rule met to entries whose shrunken log2 fold change meets or exceeds 0.003; assign rule not met to the rest.

chain | assignedLabel
RRIRGRPPRLPRPRPRPHCPPRP | rule met
RRIRMRPPRLPRPRPRPHKNPRP | rule met
RRIRGRPPRLPRPRPRPTFIPRP | rule not met
RRIRMRPPRLPRPRPRPVERPRP | rule met
RRIRFRPPRLPRPRPRPGCRPRP | rule met
RRIRGRPPRLPRPRPRPAVAPRP | rule met
RRIRPRPPRLPRPRPRPLTYPRP | rule not met
RRIRPRPPRLPRPRPRPCAFPRP | rule not met

* * *

tested on: Escherichia coli TOP10; test: shrunken log2 fold change of peptide-encoding DNA abundance (4.5 h post-induction vs induction); higher = less antimicrobial activity (less host growth inhibition); details: time post-induction: 4.5 h; library: site-saturation at positions 5, 18, 19, 20
In this section, each of the sequences is paired with its reported shrunken log2 fold change.

chain | studyTarget | shrunken log2 fold change
RRIRVRPPRLPRPRPRPVQYPRP | Escherichia coli TOP10 | -0.0224
RRIRNRPPRLPRPRPRPRQMPRP | Escherichia coli TOP10 | 0.0821
RRIRPRPPRLPRPRPRPIIGPRP | Escherichia coli TOP10 | -0.0597
RRIRQRPPRLPRPRPRPWMVPRP | Escherichia coli TOP10 | -0.0803
RRIRSRPPRLPRPRPRPQHIPRP | Escherichia coli TOP10 | -1.21
RRIRRRPPRLPRPRPRPGLKPRP | Escherichia coli TOP10 | 0.377
RRIRFRPPRLPRPRPRPMCCPRP | Escherichia coli TOP10 | -0.429
RRIRPRPPRLPRPRPRPYYWPRP | Escherichia coli TOP10 | -0.0723

* * *

system: Escherichia coli TOP10; assay: shrunken log2 fold change of peptide-encoding DNA abundance (4.5 h post-induction vs induction); higher = less antimicrobial activity (less host growth inhibition); details: time post-induction: 4.5 h; library: site-saturation at positions 5, 18, 19, 20;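 also: peptides expressed intracellularly from a pBAD plasmid library in pooled LB shake-flask culture, induced with 0.3% L-arabinose, DNA abundance read by NGS, three biological replicates, DESeq2 with apeglm shrinkage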
Readings of shrunken log2 fold change for the listed sequences
recordedEndpoint: shrunken log2 fold change

chain | studyTarget | recordedEndpoint | numericResult
RRIRDRPPRLPRPRPRPPNYPRP | Escherichia coli TOP10 | shrunken log2 fold change | -0.147
RRIRSRPPRLPRPRPRPYGQPRP | Escherichia coli TOP10 | shrunken log2 fold change | -0.134
RRIRNRPPRLPRPRPRPSPDPRP | Escherichia coli TOP10 | shrunken log2 fold change | 0.0143
RRIRMRPPRLPRPRPRPEKKPRP | Escherichia coli TOP10 | shrunken log2 fold change | 0.104
RRIRYRPPRLPRPRPRPGPIPRP | Escherichia coli TOP10 | shrunken log2 fold change | -0.0295
RRIRNRPPRLPRPRPRPLEAPRP | Escherichia coli TOP10 | shrunken log2 fold change | -0.00641
RRIRNRPPRLPRPRPRPAWGPRP | Escherichia coli TOP10 | shrunken log2 fold change | 0.288
RRIRKRPPRLPRPRPRPLEYPRP | Escherichia coli TOP10 | shrunken log2 fold change | -0.123
RRIRTRPPRLPRPRPRPCRQPRP | Escherichia coli TOP10 | shrunken log2 fold change | -0.303
RRIRWRPPRLPRPRPRPDLAPRP | Escherichia coli TOP10 | shrunken log2 fold change | 0.953
RRIRWRPPRLPRPRPRPDWYPRP | Escherichia coli TOP10 | shrunken log2 fold change | -0.268
RRIRVRPPRLPRPRPRPYAMPRP | Escherichia coli TOP10 | shrunken log2 fold change | -0.11
RRIRNRPPRLPRPRPRPNCMPRP | Escherichia coli TOP10 | shrunken log2 fold change | -0.0251
RRIRARPPRLPRPRPRPVEEPRP | Escherichia coli TOP10 | shrunken log2 fold change | 1.03
RRIRNRPPRLPRPRPRPMWIPRP | Escherichia coli TOP10 | shrunken log2 fold change | -0.148
